Test system: mRNA expressed from the genes (A) to (D) in rat liver
test: Behavior of genes (mRNA expression level, oligo-DNA microarray) in rat liver after 28-day oral administration
Assay type: in vivo
experimental_setup: gene group (C), Unigene No. Rn.119024
property_measured: Behavior of gene caused by administration of chemical substance, Gene No. 4095

{"compound": "O=C1CCCCCN1", "study_system": "mRNA expressed from the genes (A) to (D) in rat liver", "recorded_measurement": "+"}
{"compound": "O=C(OC[C@H]1O[C@@H](OC(=O)c2cc(O)c(O)c(OC(=O)c3cc(O)c(O)c(O)c3)c2)[C@H](OC(=O)c2cc(O)c(O)c(OC(=O)c3cc(O)c(O)c(O)c3)c2)[C@@H](OC(=O)c2cc(O)c(O)c(OC(=O)c3cc(O)c(O)c(O)c3)c2)[C@@H]1OC(=O)c1cc(O)c(O)c(OC(=O)c2cc(O)c(O)c(O)c2)c1)c1cc(O)c(O)c(OC(=O)c2cc(O)c(O)c(O)c2)c1", "study_system": "mRNA expressed from the genes (A) to (D) in rat liver", "recorded_measurement": "−"}
{"compound": "Nc1cc([N+](=O)[O-])ccc1C(=O)O", "study_system": "mRNA expressed from the genes (A) to (D) in rat liver", "recorded_measurement": "+"}
{"compound": "OC[C@@H](O)[C@@H](O)[C@H](O)[C@H](O)CO", "study_system": "mRNA expressed from the genes (A) to (D) in rat liver", "recorded_measurement": "−"}
{"compound": "ClC1=C(Cl)[C@]2(Cl)[C@@H]3[C@@H]4C[C@@H]([C@H]5O[C@@H]45)[C@@H]3[C@@]1(Cl)C2(Cl)Cl", "study_system": "mRNA expressed from the genes (A) to (D) in rat liver", "recorded_measurement": "−"}
{"compound": "CC1CCC(C(C)C)C(O)C1 (racemic)", "study_system": "mRNA expressed from the genes (A) to (D) in rat liver", "recorded_measurement": "−"}
{"compound": "O=C1O[C@H]([C@@H](O)CO)C(O)=C1O", "study_system": "mRNA expressed from the genes (A) to (D) in rat liver", "recorded_measurement": "−"}

###

Tested on: mRNA expressed from the genes (A) to (D) in rat liver
test: Behavior of genes (mRNA expression level, oligo-DNA microarray) in rat liver after 28-day oral administration
Assay type: in vivo
experimental_setup: gene group (C), Unigene No. Rn.120914
property_measured: Behavior of gene caused by administration of chemical substance, Gene No. 1334

{"compound": "Cl.Cl.Nc1ccc(N)cc1 [TS059, p-Phenylenediamine 2HCl]", "recorded_measurement": "+"}
{"compound": "O=C([O-])c1ccccc1.[Na+] [TS084, Sodium benzoate]", "recorded_measurement": "−"}
{"compound": "COc1ccc2c(c1)c(CC(=O)O)c(C)n2C(=O)c1ccc(Cl)cc1", "recorded_measurement": "−"}
{"compound": "Nc1ccc([N+](=O)[O-])cc1N", "recorded_measurement": "+"}
{"compound": "IC(I)I [TS039, Iodoform]", "recorded_measurement": "+"}
{"compound": "O=C(OC[C@H]1O[C@@H](OC(=O)c2cc(O)c(O)c(OC(=O)c3cc(O)c(O)c(O)c3)c2)[C@H](OC(=O)c2cc(O)c(O)c(OC(=O)c3cc(O)c(O)c(O)c3)c2)[C@@H](OC(=O)c2cc(O)c(O)c(OC(=O)c3cc(O)c(O)c(O)c3)c2)[C@@H]1OC(=O)c1cc(O)c(O)c(OC(=O)c2cc(O)c(O)c(O)c2)c1)c1cc(O)c(O)c(OC(=O)c2cc(O)c(O)c(O)c2)c1", "recorded_measurement": "−"}
{"compound": "CCC[N+](=O)[O-]", "recorded_measurement": "−"}

###

Test system: mRNA expressed from the genes (A) to (D) in rat liver
test: Behavior of genes (mRNA expression level, oligo-DNA microarray) in rat liver after 28-day oral administration
Assay type: in vivo
experimental_setup: (C), Unigene Rn.18728, defined direction −; rat liver, oral once daily 28 days
property_measured: Behavior of gene caused by administration of chemical substance, Gene No. 1993

{"molecule": "O=NN1CCOCC1", "recorded_measurement": "+"}
{"molecule": "CCN(CC)N=O", "recorded_measurement": "+"}
{"molecule": "CN(C)N=O", "recorded_measurement": "−"}
{"molecule": "c1ccc2ncccc2c1", "recorded_measurement": "−"}
{"molecule": "COC(N)=O [TS029, Methyl carbamate]", "recorded_measurement": "+"}
{"molecule": "CC(=O)Nc1ccc2c(c1)Cc1ccccc1-2", "recorded_measurement": "+"}
{"molecule": "C1COCCO1", "recorded_measurement": "+"}
{"molecule": "Cc1ccc(N)cc1N", "recorded_measurement": "−"}
{"molecule": "CC(=N)S [TS030, Thioacetoamide]", "recorded_measurement": "+"}
{"molecule": "CC(N)=O [TS067, Acetamide]", "recorded_measurement": "−"}
{"molecule": "O=NN1CCCCC1", "recorded_measurement": "+"}
{"molecule": "CC(C)[N+](=O)[O-]", "recorded_measurement": "+"}
{"molecule": "c1ccoc1", "recorded_measurement": "+"}
{"molecule": "CCOC(N)=O", "recorded_measurement": "−"}

###

Tested on: mRNA expressed from the genes (A) to (D) in rat liver
test: Behavior of genes (mRNA expression level, oligo-DNA microarray) in rat liver after 28-day oral administration
Assay type: in vivo
experimental_setup: gene group (C); Unigene No. Rn.123063; mRNA vs vehicle control group
property_measured: Behavior of gene caused by administration of chemical substance, Gene No. 6303

{"compound": "ClC(Cl)C(Cl)(Cl)Cl", "recorded_measurement": "+"}
{"compound": "CCCCC(CC)COC(=O)CCCCC(=O)OCC(CC)CCCC (centres unmarked) [TS018, Di(2-ethylhexyl)adipate]", "recorded_measurement": "−"}
{"compound": "CCC1(c2ccccc2)C(=O)NC(=O)NC1=O", "recorded_measurement": "+"}
{"compound": "COc1ccc(O)c(C(C)(C)C)c1 [TS023, Butylated hydroxyanisole]", "recorded_measurement": "−"}
{"compound": "ClC=C(Cl)Cl", "recorded_measurement": "−"}
{"compound": "CCSCCC(N)C(=O)O (racemic)", "recorded_measurement": "−"}
{"compound": "ClC1=C(Cl)C2(Cl)C3C4C=CC(C4)C3C1(Cl)C2(Cl)Cl (centres unmarked)", "recorded_measurement": "−"}
{"compound": "CCOC(=O)C(C)(C)Oc1ccc(Cl)cc1 [TS001, Clofibrate]", "recorded_measurement": "−"}

###

Test system: mRNA expressed from the genes (A) to (D) in rat liver
test: Behavior of genes (mRNA expression level, oligo-DNA microarray) in rat liver after 28-day oral administration
Type: in vivo
experimental_setup: Gene No. 5634, Rn.9862, group (C)
property_measured: Behavior of gene caused by administration of chemical substance

{"smiles_structure": "O=CCCCC=O", "recorded_measurement": "−"}
{"smiles_structure": "CC(=O)Nc1cccc2c1-c1ccccc1C2", "recorded_measurement": "−"}
{"smiles_structure": "Nc1ccc(N=Nc2ccccc2)cc1", "recorded_measurement": "−"}
{"smiles_structure": "Cc1ccccc1[N+](=O)[O-]", "recorded_measurement": "−"}
{"smiles_structure": "C=CCc1ccc(OC)c(OC)c1", "recorded_measurement": "−"}
{"smiles_structure": "O=[N+]([O-])c1ccc2ccc3cccc4ccc1c2c34", "recorded_measurement": "−"}

###

Test system: mRNA expressed from the genes (A) to (D) in rat liver
test: Behavior of genes (mRNA expression level, oligo-DNA microarray) in rat liver after 28-day oral administration
Type: in vivo
experimental_setup: gene group (C); Unigene No. Rn.23969; mRNA vs vehicle control group
property_measured: Behavior of gene caused by administration of chemical substance, Gene No. 2494

{"smiles_structure": "CC/C(=C(/CC)c1ccc(O)cc1)c1ccc(O)cc1", "recorded_measurement": "+"}
{"smiles_structure": "CN(C)c1ccc(N=Nc2ccccc2)cc1", "recorded_measurement": "−"}
{"smiles_structure": "Cc1cccc(N=Nc2ccc(N(C)C)cc2)c1", "recorded_measurement": "−"}
{"smiles_structure": "Clc1c(Cl)c(Cl)c(Cl)c(Cl)c1Cl", "recorded_measurement": "−"}
{"smiles_structure": "Cc1c(N)cccc1N", "recorded_measurement": "−"}

###

Tested on: mRNA expressed from the genes (A) to (D) in rat liver
test: Behavior of genes (mRNA expression level, oligo-DNA microarray) in rat liver after 28-day oral administration
Format: in vivo
experimental_setup: rat, in vivo
property_measured: Behavior of gene caused by administration of chemical substance, Gene No. 2203

{"compound": "OCCCl [TS032, 2-Chloroethanol]", "recorded_measurement": "−"}
{"compound": "Cl[C@H]1[C@H](Cl)[C@@H](Cl)[C@@H](Cl)[C@H](Cl)[C@H]1Cl [TS057, Lindane]", "recorded_measurement": "−"}
{"compound": "O=C1N=C([O-])NC1(c1ccccc1)c1ccccc1.[Na+] [TS069, Phenytoin Na]", "recorded_measurement": "+"}
{"compound": "ClC(Cl)Cl [TS056, Chloroform]", "recorded_measurement": "−"}
{"compound": "Cc1c(C)c2c(c(C)c1O)CC[C@@](C)(CCC[C@H](C)CCC[C@H](C)CCCC(C)C)O2 [TS062, α-Tocopherol (Vitamin E)]", "recorded_measurement": "−"}
{"compound": "Cl[C@H]1[C@H](Cl)[C@H](Cl)[C@@H](Cl)[C@H](Cl)[C@H]1Cl [TS021, α-Hexachlorocyclohexane]", "recorded_measurement": "+"}
{"compound": "Oc1cccc2cccnc12 [TS007, 8-Hydroxyquinoline]", "recorded_measurement": "−"}
{"compound": "CC(=O)Nc1ccc(C(=O)CCl)cc1 [TS072, 4-(Chloroacetyl)acetanilide]", "recorded_measurement": "+"}

Provenance of the data: patent US20110039721A1
